Data origin: PubChem BioAssay (NCI)

- Tested on: SF-539 CNS
- ASSAY_REMARKS: NCI tumour cell line growth inhibition, 48 h
A collection of molecules and their measured TGI
TEST_READOUT: TGI

[[record]]
molecule = "COc1ccc(OC)c(NC(=O)C(=O)NNC(=O)c2sc(NNC(C)=O)nc2C)c1"
val = "82.3 µM"

[[record]]
molecule = "C=C(C)C(CC=C(C)C)CC12CC(CC=C(C)C)C(C)(C)C(CC=C(C)C)(C(=O)C(Cc3ccc(O)c(O)c3)=C1O)C2=O (configuration not stated)"
val = "> 100 µM"

[[record]]
molecule = "CCOP(=O)(Cc1ccc(CP(=O)(OCC)OCC)n1C)OCC"
val = "> 100 µM"

[[record]]
molecule = "COc1ccc2c(c1)C(C)Cc1c(Cl)ncnc1N2C (configuration not stated)"
val = "18.8 µM"

[[record]]
molecule = "CNc1ccc(OC)cc1S(=O)(=O)c1ccccc1[N+](=O)[O-]"
val = "> 100 µM"

[[record]]
molecule = "COc1ccc2c(c1)CCC1C2CC[C@@]2(C)C1CC1=CC(COC(C)=O)C3C(=O)c4ccccc4C(=O)C3C12 (some centres not stated)"
val = "> 100 µM"

[[record]]
molecule = "CC1=C(C#N)C(C#N)(C#N)C(NN(C)C)C1 (configuration not stated)"
val = "> 100 µM"

[[record]]
molecule = "CCC[CH2][Ge]([CH2]CCC)([CH2]CCC)[O]C(=O)CC(=O)c1ccccc1"
val = "6.17 µM"

[[record]]
molecule = "O=C(O/N=C1/CCCC/C1=C\\c1ccccc1)c1ccccc1"
val = "> 100 µM"

[[record]]
molecule = "COC(=O)C12C3C4C1C1C2C3C41C(=O)OC(C)(C)C (configuration not stated)"
val = "> 100 µM"

[[record]]
molecule = "O=C(O)c1nc(-c2ccccc2)ncc1-c1nnnn1-c1ccccc1"
val = "> 100 µM"

[[record]]
molecule = "COc1cc(C(=O)c2cc(C)c3[nH]c4ccc(Cl)cc4c3c2C)cc(OC)c1OC"
val = "0.461 µM"

[[record]]
molecule = "O=[n+]1c2c(n([O-])c3ccccc31)CCCCCCCCCC2"
val = "> 100 µM"

[[record]]
molecule = "CC(C)=C[C@@H]1C[C@H](C)[C@H]2CC[C@H](C)C3=C2[C@](O)(OC3=O)[C@]1(C)O"
val = "> 100 µM"

[[record]]
molecule = "Cc1cc(Br)cc(C)c1NC(=O)C(=O)C(C(=O)c1ccc2ccccc2c1)C1OC(=O)c2ccccc21 (configuration not stated)"
val = "11.2 µM"

[[record]]
molecule = "CCC1(CC)SCc2nc3ccccc3n21"
val = "> 100 µM"

[[record]]
molecule = "NC(Cc1cccc([N+](=O)[O-])c1)C(=O)O (configuration not stated)"
val = "> 100 µM"

[[record]]
molecule = "CC(O)C(N=Cc1ccccc1[O-])C(=O)[O-].CC(O)C(N=Cc1ccccc1[O-])C(=O)[O-].[Co+2] (configuration not stated)"
val = "> 100 µM"

[[record]]
molecule = "CC(C)(Cc1ccccc1)NC1=NCCO1"
val = "> 100 µM"

[[record]]
molecule = "Cc1ccc(Cl)cc1Nc1nc(C(F)(F)F)ccc1C(=O)N1CCN(c2ccc(F)cc2)CC1"
val = "30.2 µM"

[[record]]
molecule = "O=NN(CCCl)C(=O)NC1CCSc2ccccc21 (configuration not stated)"
val = "> 74.5 µM"

[[record]]
molecule = "NC(N)=NCCN=C(N)N"
val = "> 100 µM"


###

A collection of compounds and their measured TGI
- System: 786-0 renal
- ASSAY_REMARKS: NCI tumour cell line growth inhibition, 48 h
TEST_READOUT: TGI

[[record]]
compound = "CC(O)C(N=Cc1ccccc1[O-])C(=O)[O-].CC(O)C(N=Cc1ccccc1[O-])C(=O)[O-].[Co+2] (stereo not given)"
val = "> 100 µM"

[[record]]
compound = "CCc1nc(N)nc(N)c1-c1ccc(Cl)c(Cl)c1"
val = "> 100 µM"

[[record]]
compound = "COc1ccc(N=C2SC(=N/N=c3\\sc4ccccc4n3C)SC2=Nc2ccc(OC)cc2)cc1"
val = "> 100 µM"

[[record]]
compound = "C=C(C=O)[C@@H]1C2OC(=O)C(=C)[C@@H]2CC(O)[C@@]1(C)CC (stereo not given in full)"
val = "10.2 µM"

[[record]]
compound = "CCCCOC(=O)C1C(c2ccc(Cl)cc2)NC(c2ccc(Cl)cc2)C(C(=O)OCCCC)S1(=O)=O (stereo not given)"
val = "> 100 µM"

[[record]]
compound = "C/C1=C\\CC[C@@]2(C)O[C@@H]2[C@H]2OC(=O)[C@@H](CN(C)C)[C@@H]2CC1"
val = "24 µM"

[[record]]
compound = "O=C(NCCCCCCNC(=O)c1cccc2ccccc12)Nc1cccc2ccccc12"
val = "> 100 µM"

[[record]]
compound = "O=C1CN=C(C[N+](=O)[O-])c2ccccc21"
val = "> 100 µM"

[[record]]
compound = "Cc1cc(Br)cc(C)c1NC(=O)C(=O)C(C(=O)c1ccc2ccccc2c1)C1OC(=O)c2ccccc21 (stereo not given)"
val = "19.3 µM"

[[record]]
compound = "CCSc1n/c(=C\\c2ccco2)c2nnnn12"
val = "> 100 µM"

[[record]]
compound = "O=C1N=c2ccccc2=C1c1c(O)[nH]c2ccccc12"
val = "21.6 µM"

[[record]]
compound = "C=C1CC(c2ccc(OCCCN3C(=O)c4ccccc4C3=O)c(OC)c2)OC1=O (stereo not given)"
val = "14.6 µM"

[[record]]
compound = "Clc1c(Cl)c(Cl)c2nn(C3CCCO3)nc2c1Cl (stereo not given)"
val = "> 100 µM"

[[record]]
compound = "CCOC(=O)C1=C(C)N(C)C23OC4(C(=O)OC)CC2c2ccccc2C1N3C4=O (stereo not given)"
val = "> 100 µM"

[[record]]
compound = "CC(C)c1ccc(Nc2ccc3c(OCCCN4CCN(C)CC4)cccc3n2)cc1"
val = "27 µM"

[[record]]
compound = "COC(=O)C(C)(NC(=O)C(CC(=O)OC(C)(C)C)NC(=O)OC(C)(C)C)c1ccccc1 (stereo not given)"
val = "> 100 µM"

[[record]]
compound = "Cc1ccc(S(=O)(=O)N/N=C/C(=C/c2ccc(Cl)cc2)CC(/C=N/NS(=O)(=O)c2ccc(C)cc2)=C\\c2ccc(Cl)cc2)cc1"
val = "4.38 µM"

[[record]]
compound = "COC(=O)C(C(=O)C(=O)Nc1cccc(OC)c1)c1cnc2ccccc2n1 (stereo not given)"
val = "> 100 µM"

[[record]]
compound = "CS(=O)(=O)Nc1ccc(N2Cc3cnc4ccc5[nH]ccc2c5c34)cc1"
val = "40.3 µM"

[[record]]
compound = "COc1cc(Nc2cnc3cc(F)c(F)cc3n2)cc(OC)c1OC"
val = "> 100 µM"

[[record]]
compound = "CC(C)(C)C(=O)OCC1CCC[N+]2(C)CCCCC12 (stereo not given)"
val = "> 100 µM"

[[record]]
compound = "CC[N+](CC)(CCNCC(N)=O)CC(N)=O"
val = "> 10 µM"

[[record]]
compound = "Ic1ccc(Nc2nc3nonc3nc2Nc2ccc(I)cc2)cc1"
val = "> 100 µM"

[[record]]
compound = "CCOC(CCNCC(OCC)OCC)OCC"
val = "> 10 µM"

[[record]]
compound = "C=C(C)[C@@]12OC3(/C=C/C=C/CCCCC)O[C@@H]1[C@@H]1[C@@H]4O[C@]4(CO)[C@@H](O)[C@]4(O)C(=O)C(C)=C[C@H]4[C@@]1(O3)[C@H](C)[C@H]2OC(=O)c1ccccc1"
val = "2.53 µM"

[[record]]
compound = "S=C(N/N=C/c1ccco1)NC12CC3CC(CC(C3)C1)C2"
val = "> 100 µM"

[[record]]
compound = "CC(=O)OCCn1cnc2nc(Nc3ccccc3)nc(Cl)c21"
val = "> 100 µM"

[[record]]
compound = "CNC(=S)NC1CCCCC1NC(=S)NC (stereo not given)"
val = "> 100 µM"

[[record]]
compound = "CCCCCCCCCC/C=C/CC(=O)SCCNC(=O)CCNC(=O)[C@@H](O)C(C)(C)COP(=O)(O)OP(=O)(O)OCC1OC(n2cnc3c(N)ncnc32)C(O)C1OP(=O)(O)O (stereo not given in full)"
val = "> 10 µM"

[[record]]
compound = "CCOC(=O)C1=CC(C)(C(=O)OCC)Nc2c(nc(OC)n(C)c2=O)N1 (stereo not given)"
val = "> 10 µM"

[[record]]
compound = "COc1ccc(C(C)NNC(=O)c2ccncc2)c(OC)c1 (stereo not given)"
val = "> 100 µM"

[[record]]
compound = "COc1cc(Nc2cn[nH]c2-c2ccc(Cl)cc2)cc(OC)c1OC"
val = "36.2 µM"

[[record]]
compound = "Cc1ccc(Cl)cc1Nc1nc(C(F)(F)F)ccc1C(=O)N1CCN(c2ccc(F)cc2)CC1"
val = "29.4 µM"

[[record]]
compound = "NC(=NCCCOc1ccc(Cl)cc1)Nc1ccc(C(F)(F)F)cc1"
val = "4.32 µM"

[[record]]
compound = "O=[n+]1c2c(n([O-])c3ccccc31)CCCCCCCCCC2"
val = "> 100 µM"

[[record]]
compound = "CNn1c(-c2ccccc2)n[nH]c1=O"
val = "> 100 µM"

[[record]]
compound = "CC(C)(C)c1cc(C(P(=O)(c2ccccc2)c2ccccc2)P(=O)(c2ccccc2)c2ccccc2)cc(C(C)(C)C)c1O"
val = "7.23 µM"

[[record]]
compound = "CC1=CC(/C=C(\\C)CCCc2ccoc2)C2(OC(=O)C(C)=C2O)[C@H]2C1CC[C@@H]2C (stereo not given in full)"
val = "32.2 µM"

[[record]]
compound = "COc1ccc(C2S/C(=C\\c3ccccc3O)C(=O)N2NC(=O)Cc2ccccc2)cc1 (stereo not given)"
val = "> 100 µM"

[[record]]
compound = "CC/C(=C(/c1ccc(OCCN(C)C)cc1)c1ccc(OC(=O)CCCCC(=O)c2c(C)[nH]c(/C=C3\\N=C(c4ccc[nH]4)C=C3OC)c2C)cc1)c1ccccc1"
val = "19.2 µM"

